molecular target: PDE4B2 (Homo sapiens, UniProt Q07343); construct: made in house; host or cells: SF21 insect cells (baculovirus, pCR-Bac vector; virus made in SF9 cells); test: Inhibition of PDE4B2 activity, modified [3H]cAMP SPA (scintillation proximity assay) test; format: biochemical; settings: recombinant PDE4B2 (GB no. M97515) expressed in SF21 insect cells; 0.5 μM cAMP; 15 min at 37° C.; read-out: PDE4 Inhibition [measured as −logIC50 (mol/l)] (converted)
Sequence (Q07343 1-564 isoform Q07343-2): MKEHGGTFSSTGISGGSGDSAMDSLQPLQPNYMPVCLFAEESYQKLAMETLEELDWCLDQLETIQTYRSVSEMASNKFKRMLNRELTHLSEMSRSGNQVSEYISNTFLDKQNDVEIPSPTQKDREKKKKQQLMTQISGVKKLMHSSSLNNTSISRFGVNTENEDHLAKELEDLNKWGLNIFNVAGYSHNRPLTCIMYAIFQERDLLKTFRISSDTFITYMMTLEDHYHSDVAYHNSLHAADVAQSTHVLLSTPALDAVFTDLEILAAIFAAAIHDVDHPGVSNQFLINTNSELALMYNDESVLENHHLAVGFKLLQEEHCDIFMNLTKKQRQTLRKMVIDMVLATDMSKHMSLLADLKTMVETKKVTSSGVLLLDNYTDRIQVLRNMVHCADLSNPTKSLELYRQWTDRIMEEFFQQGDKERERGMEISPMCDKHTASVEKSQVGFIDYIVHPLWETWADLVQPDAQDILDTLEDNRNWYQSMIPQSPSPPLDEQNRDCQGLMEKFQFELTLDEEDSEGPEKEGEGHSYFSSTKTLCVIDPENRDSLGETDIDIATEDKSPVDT
readout type: IC50 (nM)
Give bare numbers, in nM.

molecule | IC50 [nM]
CCOc1cc2c(cc1OC)C(c1ccc(C(=O)N(C(C)C)C(C)C)cc1)=N[C@@H]1CC[S+]([O-])C[C@H]21 (single isomer, unassigned) [Compound 2] | 145
CCOc1cc2c(cc1OC)C(c1ccc(C(=O)N(C(C)C)C(C)C)cc1)=[N+]([O-])[C@@H]1CCS(=O)(=O)C[C@H]21 | 20
CCOc1cc2c(cc1OC)C(c1ccc(C(=O)N(C(C)C)C(C)C)cc1)=N[C@@H]1CCSC[C@H]21 | 0.724

Continue with the next molecule.
In: Item CCOc1cc2c(cc1OC)C(c1ccc(C(=O)N(C(C)C)C(C)C)cc1)=N[C@@H]1CC[S+]([O-])C[C@H]21 (single isomer, unassigned) [Compound 3] : provide IC50
Out: 3.31
